# Assay overview: NCI Yeast Anticancer Drug Screen. Data for the wt1 strain (AID 149);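 further: 0% = growth of vehicle-treated wt1 cultures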
# Study conditions: S. cerevisiae wt1 strain (SPY 50644) growth inhibition; at 33.0 µM
The panel holds about 79,000 compounds, 15% with a hit somewhere; the sample as a whole holds those more often. Active and inactive are the calls of the source. No stated cut-off is given here; in the data, active means growth inhibition above about 70%; inactive means the rest.
Would you mind answering with one of these outcomes? Yes (active), No (inactive)

CCCC/C([O-])=C1/C(=O)N(c2ccccc2)N=C1C.CCCC/C([O-])=C1/C(=O)N(c2ccccc2)N=C1C.[Cu+2]
No
COC1CCC(O)C(/C=C/[N+](=O)[O-])C1 (configuration not stated)
Yes
O=[N+]([O-])c1ccc(N/N=C/Cc2ccccc2)c([N+](=O)[O-])c1
No
CCCCOC(=O)Nc1ccc(C)c(NC(=O)OCCCC)c1
No
CCOC(=O)[C@H]1Nc2ccc(OC)cc2C2c3ccccc3CC21 (some centres not stated)
No

Ask | What classification did CCc1c[n+]([O-])c(C)cc1[N+](=O)[O-] end up with in this test?
Reply | No

Ask | Record lookup: outcome of this test for OC1(c2ccccc2)CCCc2ccc(Cl)cc21 (configuration not stated) ?
Reply | No

---

# Assay overview: NCI Yeast Anticancer Drug Screen. Data for the CLN2oe strain (AID 163);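 further: 0% = growth of vehicle-only control cultures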
# Study conditions: S. cerevisiae CLN2oe strain, at 100.0 µM, active compounds read high
Compounds without any hit were thinned out: in the full panel of roughly 79,000, 15% have a hit.
List of growth inhibition values.
# number only, unit % dropped from output

Previously resolved entries follow.
N#CC1=C(N)N(/N=C/c2ccccc2)C(c2ccccc2)C1(C#N)C#N (stereo not given)
93
COc1cc(/C=N/Nc2nnc3c4ccccc4c4ncccc4c3n2)cc(OC)c1OC
1
CCc1ccc2c(c1)N(CC(C)CN(C)C)c1ccccc1S2 (stereo not given)
58
O=[N+]([O-])c1ccc2c(c1)/C(=N/N=C1c3ccccc3Cc3ccccc31)c1cc([N+](=O)[O-])cc([N+](=O)[O-])c1-2
95

# ---- query compound ----
Ask | Reported growth inhibition for Cc1ccc(NCCNCCO)c2c(=O)c3cc(O)ccc3sc12 : what is it?
Reply | 96

---

# Assay overview: NCI Yeast Anticancer Drug Screen. Data for the mgt1 strain (AID 153)
# Study conditions: S. cerevisiae mgt1 mutant growth inhibition; at 1.2 µM; active compounds read high
This is part of a sample that, as a whole, favours compounds with a hit. Of some 79,000 tested, about 15% had one in any assay.
Readout type: growth inhibition (%)
I only need the number, in %, no unit after it.

CCOC(=O)C(Br)C(Br)c1ccccc1Cl (stereo not drawn)
0

Ask | I'd like to know its growth inhibition. The compound in question is O=[n+]1c2ccccc2n([O-])c2cc(Br)ccc21
Reply | 5

Ask | Query: growth inhibition; subject: COc1ccc(C(=O)Oc2ccccc2Br)cc1
Reply | -8

---

# Assay overview: NCI Yeast Anticancer Drug Screen. Data for the mgt1 strain (AID 153)
# Study conditions: S. cerevisiae mgt1 mutant growth inhibition; at 11.0 µM
Compounds without any hit were thinned out: in the full panel of roughly 79,000, 15% have a hit. Active and inactive are the calls of the source. No stated cut-off is given here; in the data, active means growth inhibition above about 70%; inactive means the rest.
In this exercise, the only acceptable responses are y for active, n for inactive

Example results:
O=C(NNc1ccccc1)c1ccc(Cl)c(Cl)c1
n
CCOC(=O)C1N=[N+](c2ccccc2)C(=O)/C1=C\n1c(=S)[nH]c2ccc([N+](=O)[O-])cc21 (stereo unspecified)
n
C(=Nc1ccc(-c2cc(-c3ccccc3)nc3ccc4ccccc4c23)cc1)c1ccccc1
n
Oc1ccc2c(c1)C(O)CCCC2 (stereo unspecified)
n
O=C(/C=C(/c1ccccc1)N1CCCCC1)c1ccccc1
n

Ask | Each compound tested received a call. Report the one for O=C(NCCCNCCN1C(=O)c2cccc3cc([N+](=O)[O-])cc(c23)C1=O)c1cc(-c2ccccc2)nc2ccccc12 .
Reply | n

Ask | How did this test come out for Cc1sc2ccc3ccccc3c2[n+]1C ?
Reply | n

Ask | Status in this test for Nc1cc(N)c(N=Nc2cccc3c(S(=O)(=O)O)cccc23)cc1N=Nc1cc([N+](=O)[O-])ccc1O ?
Reply | n
